UniProt P07339: recorded Ki for assorted molecules
Sequence (P07339 65-412, species assumed): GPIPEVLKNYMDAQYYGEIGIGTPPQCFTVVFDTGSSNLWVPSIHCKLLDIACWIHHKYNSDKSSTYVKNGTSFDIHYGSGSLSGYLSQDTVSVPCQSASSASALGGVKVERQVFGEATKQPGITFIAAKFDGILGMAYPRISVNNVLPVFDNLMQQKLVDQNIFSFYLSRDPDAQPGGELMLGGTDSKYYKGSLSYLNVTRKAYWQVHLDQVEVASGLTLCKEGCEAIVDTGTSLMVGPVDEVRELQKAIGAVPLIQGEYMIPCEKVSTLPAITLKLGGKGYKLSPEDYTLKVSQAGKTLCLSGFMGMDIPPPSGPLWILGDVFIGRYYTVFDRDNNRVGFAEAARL

molecule: Cc1csc(CN(C)C(=O)c2cccc(C(=O)NC(Cc3ccccc3)C(O)CNCc3cccc(C(C)C)c3)c2)n1 (stereo not drawn)
Ki: < 300 nM
--
molecule: COc1cccc(CNCC(O)C(Cc2ccccc2)NC(=O)c2cc(C(=O)NC(C)c3ccc(F)cc3)cc(N(C)S(C)(=O)=O)c2)c1 (stereo not drawn)
Ki: < 300 nM
--
molecule: CC(NC(=O)c1cc(C(=O)NC(Cc2ccccc2)C(O)CNCc2ccccc2O)cc(N(C)S(C)(=O)=O)c1)c1ccccc1 (stereo not drawn)
Ki: < 300 nM
--
molecule: CC(NC(=O)c1cc(C(=O)NC(Cc2ccccc2)C(O)CNCC2CCN(C(=O)OCc3ccccc3)CC2)cc(N(C)S(C)(=O)=O)c1)c1ccccc1 (stereo not drawn)
Ki: < 300 nM
--
molecule: COc1cccc(CNCC(O)C(Cc2ccccc2)NC(=O)c2cc(C(=O)NC(C)c3ccccc3)cc([N+](=O)[O-])c2)c1 (stereo not drawn)
Ki: < 300 nM
--
molecule: CC(NC(=O)c1cc(C(=O)NC(Cc2ccccc2)C(O)CNCc2cccc(C(F)(F)F)c2)cc(N(C)S(C)(=O)=O)c1)c1ccccc1 (stereo not drawn)
Ki: < 300 nM
--
molecule: COc1cccc(CNCC(O)C(Cc2ccccc2)NC(=O)c2cc(C(=O)NC(C)c3cccnc3)cc(N(C)S(C)(=O)=O)c2)c1 (stereo not drawn)
Ki: > 501 nM
--
molecule: CCc1cccc(CNCC(O)C(Cc2ccccc2)NC(=O)c2cc(C(=O)NC(C)c3ccccc3)cc(N(C)S(C)(=O)=O)c2)c1 (stereo not drawn)
Ki: < 300 nM
--
molecule: Cc1csc(CN(C(=O)c2cccc(C(=O)NC(Cc3ccccc3)C(O)CNCc3cncc(C(C)C)c3)c2)C2CC2)n1 (stereo not drawn)
Ki: < 300 nM
--
molecule: CC(NC(=O)c1cc(C(=O)NC(Cc2ccccc2)C(O)CNCc2cnccn2)cc(N(C)S(C)(=O)=O)c1)c1ccccc1 (stereo not drawn)
Ki: > 501 nM
--
molecule: CC(NC(=O)c1cc(C(=O)NC(Cc2ccccc2)C(O)CNCc2cccc(CF)c2)cc(N(C)S(C)(=O)=O)c1)c1ccccc1 (stereo not drawn)
Ki: < 300 nM
--
molecule: CCc1cccc(CNCC(O)C(Cc2ccccc2)NC(=O)c2cccc(C(=O)N(C)Cc3nc(C)cs3)c2)c1 (stereo not drawn)
Ki: < 300 nM
--
molecule: CC(NC(=O)c1cc(C(=O)NC(Cc2ccccc2)C(O)CNCc2cccnc2)cc(N(C)S(C)(=O)=O)c1)c1ccccc1 (stereo not drawn)
Ki: > 501 nM
--
molecule: Cc1csc(CN(C)C(=O)c2cccc(C(=O)NC(Cc3ccccc3)C(O)CNCc3cccc(C(F)(F)F)c3)c2)n1 (stereo not drawn)
Ki: < 300 nM
--
molecule: COc1cccc(CNCC(O)C(Cc2ccccc2)NC(=O)c2cc(C(=O)NC(C)c3ccccc3)cc(N(C)S(C)(=O)=O)c2)c1 (stereo not drawn)
Ki: < 300 nM

---

molecular target: memapsin 1 (Homo sapiens, UniProt Q9Y5Z0)
Sequence (Q9Y5Z0 63-518): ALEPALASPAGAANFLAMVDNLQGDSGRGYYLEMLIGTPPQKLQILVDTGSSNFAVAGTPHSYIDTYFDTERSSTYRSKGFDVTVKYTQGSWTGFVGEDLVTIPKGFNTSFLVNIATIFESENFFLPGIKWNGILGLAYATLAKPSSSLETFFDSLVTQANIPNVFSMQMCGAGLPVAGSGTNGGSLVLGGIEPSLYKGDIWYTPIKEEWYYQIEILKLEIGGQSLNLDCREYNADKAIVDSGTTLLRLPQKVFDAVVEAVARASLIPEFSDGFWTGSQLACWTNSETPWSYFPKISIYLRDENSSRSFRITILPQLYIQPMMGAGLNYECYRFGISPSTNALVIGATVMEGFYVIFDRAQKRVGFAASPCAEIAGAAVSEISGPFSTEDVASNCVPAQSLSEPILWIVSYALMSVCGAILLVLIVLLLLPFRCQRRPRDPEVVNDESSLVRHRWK

compound: CC(NCC(O)C(Cc1ccccc1)NC(=O)c1cc(C(=O)NC(C)c2ccccc2)cc(N(C)S(C)(=O)=O)c1)c1ccc(F)cc1 (stereo not drawn)
measurement target: memapsin 1 (Homo sapiens, UniProt Q9Y5Z0)
Ki: < 300 nM
--
compound: COc1cccc(CNCC(O)C(Cc2ccccc2)NC(=O)c2cc(C(=O)NN(C)c3ccccc3)cc(N(C)S(C)(=O)=O)c2)c1 (stereo not drawn)
measurement target: memapsin 1 (Homo sapiens, UniProt Q9Y5Z0)
Ki: > 501 nM
--
compound: COc1cccc(CNCC(O)C(Cc2ccccc2)NC(=O)c2cc(C(=O)NCC3COC4OCCC34)cc(N(C)S(C)(=O)=O)c2)c1 (stereo not drawn)
measurement target: memapsin 1 (Homo sapiens, UniProt Q9Y5Z0)
Ki: > 501 nM
--
compound: COc1cccc(CNCC(O)C(Cc2ccccc2)NC(=O)c2cccc(C(=O)NC(C)c3cccnc3)c2)c1 (stereo not drawn)
measurement target: memapsin 1 (Homo sapiens, UniProt Q9Y5Z0)
Ki: > 501 nM
--
compound: COc1cccc(CNCC(O)C(Cc2ccccc2)NC(=O)c2cc(C(=O)NC(C)c3nc(C)oc3C)cc(N(C)S(C)(=O)=O)c2)c1 (stereo not drawn)
measurement target: memapsin 1 (Homo sapiens, UniProt Q9Y5Z0)
Ki: > 501 nM
--
compound: CC(NCC(O)C(Cc1ccccc1)NC(=O)c1cc(C(=O)NC(C)c2ccccc2)cc(N(C)S(C)(=O)=O)c1)c1ccccc1 (stereo not drawn)
measurement target: memapsin 1 (Homo sapiens, UniProt Q9Y5Z0)
Ki: 301 to 500 nM
--
compound: CC(NC(=O)c1cc(C(=O)NC(Cc2ccccc2)C(O)CNCc2cccc(COCc3ccccc3)c2)cc(N(C)S(C)(=O)=O)c1)c1ccccc1 (stereo not drawn)
measurement target: memapsin 1 (Homo sapiens, UniProt Q9Y5Z0)
Ki: < 300 nM
--
compound: COc1cncc(CNCC(O)C(Cc2ccccc2)NC(=O)c2cc(C(=O)NC(C)c3ccccc3)cc(N(C)S(C)(=O)=O)c2)c1 (stereo not drawn)
measurement target: memapsin 1 (Homo sapiens, UniProt Q9Y5Z0)
Ki: 301 to 500 nM
--
compound: CCC(NC(=O)c1cc(C(=O)NC(Cc2ccccc2)C(O)CNCc2cccc(OC)c2)cc(N(C)S(C)(=O)=O)c1)c1ccccc1 (stereo not drawn)
measurement target: memapsin 1 (Homo sapiens, UniProt Q9Y5Z0)
Ki: < 300 nM
--
compound: COc1cccc(CNCC(O)C(Cc2ccccc2)NC(=O)c2cc(C(=O)NCc3ccccc3)cc(N(C)S(C)(=O)=O)c2)c1 (stereo not drawn)
measurement target: memapsin 1 (Homo sapiens, UniProt Q9Y5Z0)
Ki: > 501 nM
--
compound: COc1cccc(CNCC(O)C(Cc2ccccc2)NC(=O)c2cc(C(=O)NCc3nc(C)oc3C)cc(N(C)S(C)(=O)=O)c2)c1 (stereo not drawn)
measurement target: memapsin 1 (Homo sapiens, UniProt Q9Y5Z0)
Ki: > 501 nM
--
compound: COc1cccc(CNCC(O)C(CC(C)C)NC(=O)c2cc(C(=O)NC(C)c3ccccc3)cc(N(C)S(C)(=O)=O)c2)c1 (stereo not drawn)
measurement target: memapsin 1 (Homo sapiens, UniProt Q9Y5Z0)
Ki: > 501 nM
--
compound: CC(NC(=O)c1cc(C(=O)NC(Cc2ccccc2)C(O)CNCc2ccccc2O)cc(N(C)S(C)(=O)=O)c1)c1ccccc1 (stereo not drawn)
measurement target: memapsin 1 (Homo sapiens, UniProt Q9Y5Z0)
Ki: < 300 nM
--
compound: COc1cccc(C(C)NCC(O)C(Cc2ccccc2)NC(=O)c2cc(C(=O)NC(C)c3ccccc3)cc(N(C)S(C)(=O)=O)c2)c1 (stereo not drawn)
measurement target: memapsin 1 (Homo sapiens, UniProt Q9Y5Z0)
Ki: < 300 nM
--
compound: COc1ccccc1CNCC(O)C(Cc1ccccc1)NC(=O)c1cc(C(=O)NC(C)c2ccccc2)cc(N(C)S(C)(=O)=O)c1 (stereo not drawn)
measurement target: memapsin 1 (Homo sapiens, UniProt Q9Y5Z0)
Ki: 301 to 500 nM
